Data origin: patent US6677368B2

target: PDGFR (UniProt P09619); construct: PDGFR-β expressing NIH 3T3 cell lysate (SUGEN, Inc.); assay: PDGFR bioassay (ELISA, in vitro kinase activity); settings: PDGFR-β expressing NIH 3T3 cell lysate, 20 μM ATP
measure name: IC50 (µM)

compound: COc1ccc(-c2cccc3c2/C(=C/c2[nH]c(C)c(C(=O)N4C[C@@H](C)N[C@@H](C)C4)c2C)C(=O)N3)cc1 [Example 40]
measure unit: µM
IC50: 11.1

compound: COc1cccc(-c2cccc3c2/C(=C/c2[nH]c(C)c(C(=O)NCCn4ccnn4)c2C)C(=O)N3)c1 [Example 48]
measure unit: µM
IC50: 8.39

----------
biological target: SRC (Homo sapiens, UniProt P12931); assay: Src transphosphorylation assay; settings: recombinant human Src, poly(Glu-Tyr) substrate
Sequence (P12931 whole entry): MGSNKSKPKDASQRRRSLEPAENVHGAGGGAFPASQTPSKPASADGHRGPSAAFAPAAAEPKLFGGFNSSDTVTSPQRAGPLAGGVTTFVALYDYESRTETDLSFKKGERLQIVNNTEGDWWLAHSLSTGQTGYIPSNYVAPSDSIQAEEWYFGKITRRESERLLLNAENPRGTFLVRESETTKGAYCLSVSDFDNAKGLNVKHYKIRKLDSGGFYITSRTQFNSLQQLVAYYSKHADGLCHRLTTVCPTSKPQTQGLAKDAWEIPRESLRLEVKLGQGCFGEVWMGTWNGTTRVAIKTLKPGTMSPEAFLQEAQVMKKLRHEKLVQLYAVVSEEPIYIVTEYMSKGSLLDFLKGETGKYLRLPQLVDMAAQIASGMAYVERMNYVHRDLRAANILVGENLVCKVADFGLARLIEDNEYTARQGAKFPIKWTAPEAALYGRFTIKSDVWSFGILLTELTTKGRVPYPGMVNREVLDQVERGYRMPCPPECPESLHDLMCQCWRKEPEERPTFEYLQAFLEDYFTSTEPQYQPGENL
measure name: IC50 (nM)

(P) COc1ccc(-c2cccc3c2/C(=C/c2[nH]c(C)cc2C(=O)NCCN2CCCC2)C(=O)N3)cc1
(Q) CCN(CC)CCNC(=O)c1c(C)[nH]c(/C=C2\C(=O)Nc3cccc(-c4cccc(F)c4)c32)c1C
(R) CCN(CC)CCNC(=O)c1c(C)[nH]c(/C=C2\C(=O)Nc3cccc(-c4cccc(OC)c4)c32)c1C
Query string: // TODO: order the 3 molecules above by IC50, descending Rank them, then answer with their labels in that order.
Result string: P, Q, R
(P: 5420 nM, Q: 1050 nM, R: 660 nM)

----------
pIC50 tested on EGFR (Homo sapiens): recorded values
Sequence (P00533 25-1210, species assumed): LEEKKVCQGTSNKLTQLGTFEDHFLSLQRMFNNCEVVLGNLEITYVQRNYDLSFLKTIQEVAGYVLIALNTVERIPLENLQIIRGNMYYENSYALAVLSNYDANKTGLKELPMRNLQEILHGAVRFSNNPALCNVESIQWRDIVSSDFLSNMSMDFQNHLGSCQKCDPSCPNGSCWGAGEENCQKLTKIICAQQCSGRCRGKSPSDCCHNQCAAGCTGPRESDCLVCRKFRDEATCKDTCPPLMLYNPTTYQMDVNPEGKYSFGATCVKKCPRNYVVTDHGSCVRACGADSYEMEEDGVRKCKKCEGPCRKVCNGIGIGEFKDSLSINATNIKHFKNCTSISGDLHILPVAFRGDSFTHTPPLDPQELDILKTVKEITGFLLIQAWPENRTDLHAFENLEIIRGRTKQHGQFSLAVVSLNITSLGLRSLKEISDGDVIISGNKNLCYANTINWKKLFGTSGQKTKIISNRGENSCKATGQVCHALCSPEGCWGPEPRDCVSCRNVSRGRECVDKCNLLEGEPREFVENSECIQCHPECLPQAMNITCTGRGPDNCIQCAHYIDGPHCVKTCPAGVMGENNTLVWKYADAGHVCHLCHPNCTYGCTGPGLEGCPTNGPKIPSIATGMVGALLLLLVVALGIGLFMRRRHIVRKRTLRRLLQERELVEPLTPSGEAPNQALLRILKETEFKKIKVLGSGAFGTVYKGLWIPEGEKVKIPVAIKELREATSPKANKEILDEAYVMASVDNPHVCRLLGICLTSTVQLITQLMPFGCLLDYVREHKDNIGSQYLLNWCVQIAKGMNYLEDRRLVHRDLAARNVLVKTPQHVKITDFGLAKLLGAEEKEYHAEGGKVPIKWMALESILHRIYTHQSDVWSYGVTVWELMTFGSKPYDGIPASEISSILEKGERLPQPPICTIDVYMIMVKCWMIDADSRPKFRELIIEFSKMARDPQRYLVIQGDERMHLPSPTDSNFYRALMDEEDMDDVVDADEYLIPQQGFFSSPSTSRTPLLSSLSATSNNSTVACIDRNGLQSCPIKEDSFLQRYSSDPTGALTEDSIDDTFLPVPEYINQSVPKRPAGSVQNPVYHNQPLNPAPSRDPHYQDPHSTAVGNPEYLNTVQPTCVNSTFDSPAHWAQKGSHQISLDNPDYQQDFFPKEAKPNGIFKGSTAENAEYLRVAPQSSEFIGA
pIC50: −log10 of the molar value.
measure name: pIC50

compound: CCN(CC)CCNC(=O)c1c(C)[nH]c(/C=C2\C(=O)Nc3cccc(-c4cccc(Cl)c4)c32)c1C [Example 29]
pIC50: 4.89
//
compound: COc1ccc(-c2cccc3c2/C(=C/c2[nH]c(C)c(C(=O)NCCN4CCCC4)c2C)C(=O)N3)cc1 [Example 38]
pIC50: 4.79
//
compound: CCN(CC)CCNC(=O)c1c(C)[nH]c(/C=C2\C(=O)Nc3cccc(-c4cccc(Br)c4)c32)c1C [Example 63]
pIC50: 4.82
//
compound: Cc1[nH]c(/C=C2\C(=O)Nc3cccc(-c4ccc(F)cc4)c32)c(C)c1C(=O)NCCN1CCCC1 [Example 6]
pIC50: 4.79

----------
target: FLK-1 (Mus musculus); construct: GST-Flklcd purified from sf9 recombinant baculovirus transfomnation (SUGEN, Inc.); assay: GST-FLK-1 bioassay (tyrosine kinase activity on poly(glu-tyr)); details: GST-Flk1, poly(glu-tyr) substrate, 0.5 μM ATP
Sequence (P35918 784-1345 limits assumed): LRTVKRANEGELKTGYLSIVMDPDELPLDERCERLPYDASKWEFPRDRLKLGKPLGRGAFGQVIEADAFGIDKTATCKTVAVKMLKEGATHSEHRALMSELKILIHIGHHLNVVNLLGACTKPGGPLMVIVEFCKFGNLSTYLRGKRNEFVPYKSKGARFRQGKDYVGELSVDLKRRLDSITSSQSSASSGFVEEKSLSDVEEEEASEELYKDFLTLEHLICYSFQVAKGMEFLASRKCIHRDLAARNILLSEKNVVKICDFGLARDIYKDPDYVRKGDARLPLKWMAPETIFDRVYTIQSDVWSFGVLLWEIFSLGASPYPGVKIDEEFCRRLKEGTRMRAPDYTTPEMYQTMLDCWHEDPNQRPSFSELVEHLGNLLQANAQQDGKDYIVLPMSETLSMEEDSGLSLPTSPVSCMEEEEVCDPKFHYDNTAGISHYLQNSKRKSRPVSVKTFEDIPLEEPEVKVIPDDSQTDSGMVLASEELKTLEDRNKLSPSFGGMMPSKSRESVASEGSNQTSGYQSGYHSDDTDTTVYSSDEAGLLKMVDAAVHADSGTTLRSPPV
pIC50: −log10 of the molar value.
measure name: pIC50

query smiles: COc1ccc(-c2cccc3c2/C(=C/c2[nH]c(C)c(C(=O)N4C[C@@H](C)N[C@@H](C)C4)c2C)C(=O)N3)cc1
pIC50: 7.39

(P) Cc1cc(C(=O)NCCn2ccnn2)c(/C=C2\C(=O)Nc3cccc(-c4cccc(Cl)c4)c32)[nH]1
(Q) COc1ccc(-c2cccc3c2/C(=C/c2[nH]c(C)c(C(=O)NCCN4CCCC4)c2C)C(=O)N3)cc1
(R) Cc1cc(C(=O)NCCn2ccnn2)c(/C=C2\C(=O)Nc3cccc(-c4ccccc4F)c32)[nH]1
Query string: Reorder: pIC50, max to min. Present the labels in the sequence the task asks for.
Result string: Q, R, P
(Q: 7.54, R: 6.77, P: 5.97)

----------
molecular target: SRC (Homo sapiens, UniProt P12931); test: Src transphosphorylation assay; conditions: recombinant human Src, poly(Glu-Tyr) substrate
measure name: IC50 (µM)

query smiles: Cc1cc(C(=O)NCCN2CCCC2)c(/C=C2\C(=O)Nc3cccc(-c4ccc(Br)cc4)c32)[nH]1
observed result: 4.81

(1) COc1cccc(-c2cccc3c2/C(=C/c2[nH]c(C)c(C(=O)NCCn4ccnn4)c2C)C(=O)N3)c1
(2) Cc1[nH]c(/C=C2\C(=O)Nc3cccc(-c4ccc(Cl)cc4)c32)c(C)c1C(=O)NCCN1CCCC1
(3) Cc1cc(C(=O)N2CC[C@@H](N(C)C)C2)c(/C=C2\C(=O)Nc3cccc(-c4ccc(Cl)cc4)c32)[nH]1
Query string: Rank ascending by IC50. Put the labels in the requested order and write them down.
Result string: 2, 1, 3
(2: 1.58 µM, 1: 3.8 µM, 3: 9.86 µM)

(I) CCN(CC)CCNC(=O)c1c[nH]c(/C=C2\C(=O)Nc3cccc(-c4ccc(Br)cc4)c32)c1C
(II) Cc1cc(C(=O)NCCN2CCCC2)c(/C=C2\C(=O)Nc3cccc(-c4ccc(F)c(Cl)c4)c32)[nH]1
Query string: Of the two listed items, I and II , which carries the larger IC50 figure? In your reply, give the label of the chosen option.
Result string: II

----------
molecular target: FGFR1 (Homo sapiens, UniProt P11362)
Sequence (P11362 22-822, species assumed): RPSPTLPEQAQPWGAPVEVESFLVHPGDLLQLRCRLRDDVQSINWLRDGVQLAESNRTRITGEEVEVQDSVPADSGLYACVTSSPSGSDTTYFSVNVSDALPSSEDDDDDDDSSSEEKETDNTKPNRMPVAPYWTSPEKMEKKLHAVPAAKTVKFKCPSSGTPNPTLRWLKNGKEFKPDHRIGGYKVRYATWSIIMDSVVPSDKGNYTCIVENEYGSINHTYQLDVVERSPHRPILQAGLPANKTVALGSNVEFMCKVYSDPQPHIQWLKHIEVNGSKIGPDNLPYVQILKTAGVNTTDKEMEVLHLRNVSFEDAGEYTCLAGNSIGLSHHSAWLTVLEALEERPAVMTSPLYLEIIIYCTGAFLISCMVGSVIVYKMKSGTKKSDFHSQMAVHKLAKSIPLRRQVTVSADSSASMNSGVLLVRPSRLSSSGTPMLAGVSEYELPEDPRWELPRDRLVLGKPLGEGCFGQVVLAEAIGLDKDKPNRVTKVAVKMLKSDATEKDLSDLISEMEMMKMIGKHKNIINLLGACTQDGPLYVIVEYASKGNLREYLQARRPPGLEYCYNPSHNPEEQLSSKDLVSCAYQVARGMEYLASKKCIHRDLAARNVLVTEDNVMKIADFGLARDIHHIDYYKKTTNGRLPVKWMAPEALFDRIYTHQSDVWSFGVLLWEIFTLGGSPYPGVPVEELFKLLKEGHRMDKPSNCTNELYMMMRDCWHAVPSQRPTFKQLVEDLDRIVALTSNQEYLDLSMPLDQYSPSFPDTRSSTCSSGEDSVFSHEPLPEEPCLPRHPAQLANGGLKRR
measure name: IC50 (nM)

A selection of reference data follows.
query smiles: Cc1cc(C(=O)N2C[C@@H](C)N[C@@H](C)C2)c(/C=C2\C(=O)Nc3cccc(-c4cccc(Cl)c4)c32)[nH]1
measure name: IC50
measure unit: nM
observed result: 220
--
query smiles: Cc1cc(C(=O)NCCN2CCCC2)c(/C=C2\C(=O)Nc3cccc(-c4ccc(F)c(Cl)c4)c32)[nH]1
measure name: IC50
measure unit: nM
observed result: 240
--
query smiles: COc1cccc(-c2cccc3c2/C(=C/c2[nH]c(C)c(C(=O)NCCN(C(C)C)C(C)C)c2C)C(=O)N3)c1
measure name: IC50
measure unit: nM
observed result: 35
--
query smiles: COc1ccc(-c2cccc3c2/C(=C/c2[nH]c(C)cc2C(=O)NCCN2CCCC2)C(=O)N3)cc1
measure name: IC50
measure unit: nM
observed result: 560

(1) Cc1cc(C(=O)NCCn2ccnn2)c(/C=C2\C(=O)Nc3cccc(-c4ccccc4F)c32)[nH]1
(2) Cc1[nH]c(/C=C2\C(=O)Nc3cccc(-c4cccc(F)c4)c32)c(C)c1C(=O)NCCn1ccnn1
(3) Cc1cc(C(=O)N2CC[C@H](N(C)C)C2)c(/C=C2\C(=O)Nc3cccc(-c4cccc(Cl)c4)c32)[nH]1
Query string: Order each entry by recorded IC50, climbing from the minimum. Reply with the labels, ordered as the question asks.
Result string: 3, 1, 2
(3: 350 nM, 1: 610 nM, 2: 2070 nM)

(A) CCN(CC)CCNC(=O)c1c(C)[nH]c(/C=C2\C(=O)Nc3cccc(-c4ccc(OC(F)(F)F)cc4)c32)c1C
(B) Cc1cc(C(=O)N2CC[C@H](N(C)C)C2)c(/C=C2\C(=O)Nc3cccc(-c4ccc(F)cc4)c32)[nH]1
(C) Cc1[nH]c(/C=C2\C(=O)Nc3cccc(-c4cccc(C(F)(F)F)c4)c32)c(C)c1C(=O)N1CCN(C)CC1
Query string: Arrange the 3 compounds from largest to smallest IC50. Answer with the labels in sequence, matching the requested order.
Result string: B, A, C
(B: 1540 nM, A: 520 nM, C: 300 nM)

(A) Cc1[nH]c(/C=C2\C(=O)Nc3cccc(-c4ccc(F)cc4)c32)c(C)c1C(=O)N1CCN(C)CC1
(B) Cc1cc(C(=O)NCCN2CCCC2)c(/C=C2\C(=O)Nc3cccc(-c4ccc(Br)cc4)c32)[nH]1
(C) CCOC(=O)c1c(C)[nH]c(/C=C2\C(=O)Nc3cccc(-c4cccc(F)c4)c32)c1CCCN1CCN(C)CC1
Query string: Could you please sort these 3 entries by IC50 from high to low? Returns: the labels arranged in the requested order.
Result string: C, A, B

(I) Cc1cc(C(=O)N2CC[C@@H](N(C)C)C2)c(/C=C2\C(=O)Nc3cccc(-c4ccc(Cl)cc4)c32)[nH]1
(II) Cc1[nH]c(/C=C2\C(=O)Nc3cccc(-c4ccc(Cl)cc4)c32)c(C)c1C(=O)N1CCN(C)CC1
Query string: # argmax over IC50 for candidates I and II Kindly state the label of the option you pick.
Result string: II

----------
target: SRC (Homo sapiens, UniProt P12931); assay: Src transphosphorylation assay; conditions: recombinant human Src, poly(Glu-Tyr) substrate
pIC50: −log10 of the molar value.
measure name: pIC50

query smiles: CCN(CC)CCNC(=O)c1c(C)[nH]c(/C=C2\C(=O)Nc3cccc(-c4ccccc4)c32)c1C
target system: SRC (Homo sapiens, UniProt P12931)
pIC50: 5.99
--
query smiles: Cc1[nH]c(/C=C2\C(=O)Nc3cccc(-c4cccc(F)c4)c32)c(C)c1C(=O)NCCn1ccnn1
target system: SRC (Homo sapiens, UniProt P12931)
pIC50: 5.64

(I) COc1ccc(-c2cccc3c2/C(=C/c2[nH]c(C)c(C(=O)NCCN4CCCC4)c2C)C(=O)N3)cc1
(II) Cc1[nH]c(/C=C2\C(=O)Nc3cccc(-c4ccc(Br)cc4)c32)c(C)c1C(=O)NCCN(C(C)C)C(C)C
Query string: In terms of reported pIC50, does I or II have the smaller number? Write down the label attached to your selection.
Result string: II
